Test system: MS2 coat protein
Assay: apparent KD of MS2 coat protein; designed switch direction (-1 OFF switch, 1 ON switch): -1; higher = weaker reporter binding
Conditions: input ligand: FMN 200 uM
Please go through the items and note down their apparent KD of MS2 coat protein.
Numbers only, in µM.

// known answers, use as guide
| seq.string | apparent KD of MS2 coat protein / µM |
| --- | --- |
| CUGCCAACGAAGCUUGUCGACAUGAGGAUCACCCAUGUUUCGCAAAGUGUUACAAAAAAAUAUCUGUAUGAAAAUGU [JR_Sensorv2_yov_Sub1319] (Eterna round: R96, puzzle: Sensor v2, turn-off variant) | 0.0118 |
| GUAGAGUCAGGAUAUACGAGAUCGAAAGAUCAGCGAUCCUUACAUGAGGAUCACCCAUGUAGAAGGGACUCUAC [Omei mod 11 to Eli's favorate candidate (ch.parushev)] (Eterna round: R97, puzzle: Exclusion 2) | 0.254 |
| UAUUAAGCAAGCAGAUCCCACAUGAGGAUCACCCAUGUGCUCGUCUUAUAAGGUACUGUGACGAAAGUCACGGUACC [Sensor 3, v1 - 91 v12] (Eterna round: R97, puzzle: Sensor, turn-off variant 1) | 0.126 |
| GGUCAGAUGGUAGGAUAUCCAUAUCGAGUGACCCUUUCAUAACAUGAGGAUCACCCAUGUCGGUGGGAGAAGGGUCGUACGGCG [salish99_ExNG02_R04_020] (Eterna round: R96, puzzle: Exclusion NG 2) | 0.0213 |

Can you give me apparent KD of MS2 coat protein for all of these, one by one?
1. AUAUUGUGAGGAUAUGAACUUAGUAUCGAAAGAUACAAAGUUCAGAAGGCACAUGAGGAUCACCCAUGUUUCUC [Long static hairpin v7] (Eterna round: R97, puzzle: Exclusion 4)
2. GCACGGAAAUUCCAUAAAACCACAUGAGGAUCACCCAUGUCUCAGGAUAUGGUCUGGAUUACAGGCCAGAAGGGAGAACCGUGC [Eli exng3 - 059] (Eterna round: R96, puzzle: Exclusion NG 3)
3. GUACACGGCUAGGAUAUCAUUCCUUGCGACCCUUGAGAAGGAGCCACAUGAGGAUCACCCAUGUCAUAUGCAGA [Eternabot (Original) Solution 38] (Eterna round: R97, puzzle: Exclusion 6)
4. CAGAACUGAGGAUAUACAUGAGGAUCACCCAUGUGUUCCAGCUAGGAGACUAGCAUAUGUAGAAGGCAGUUCUG [Mat - Exclusion 3 - JL Mod - D11] (Eterna round: R97, puzzle: Exclusion 3)
5. UAAAAGUGAGGAUAUACGUGAAAUCCGCCAGGCGGAGAUCUACAUGAGGAUCACCCAUGUAGAAGGCACGGAAU [EX2 A.13] (Eterna round: R97, puzzle: Exclusion 2)
6. UAAGUUCAGUAGGAUAUUCAGCAGCUGCUGCUAGGAGAAGGGCUGACAUGAGGAUCACCCAUGUGAGUGUCCGU [Eternabot (L2) Solution 55] (Eterna round: R97, puzzle: Exclusion 6)
7. GCGCACCUACCAAAAGGUAGGUCAACAUGAGGAUCACCCAUGUAGGAUAUCGAUUGCUUUGCAGUCGAGAAGGGCAUGAUGCGC [JL ENG3 3.80 Mod 14] (Eterna round: R96, puzzle: Exclusion NG 3)

stdout:
1. 0.703
2. 0.0151
3. 0.0375
4. 0.587
5. 0.0158
6. 0.0922
7. 0.0591

// apparent KD of MS2 coat protein value for AAAAGUUGGUAAGGAUAUCCCACAUUAUUCUGACCCGUGCAAGCUACAUGAGGAUCACCCAUGUGGGAGAAGGUGCGUUAAAGA [Zatiisor] (Eterna round: R96, puzzle: Exclusion NG 2) : 0.209
